tested on: peptide-specific IgG in sera of cancer patients and healthy donors; assay: Measurement of anti-peptide IgG in plasma by LUMINEX multiplexed flow cytometric assay; format: binding, human; details: serum of Uterine cervical Ca. patient #3, 1:100 dilution
Item-by-item account of Fluorescence intesity
Just the number, please.

| Monomer sequence | Quantity kind | Value measured |
| --- | --- | --- |
| EYLDAIKKF (SCCA 118-126 peptide) [SCCA-derived peptide, position 118-126] | Fluorescence intesity | 0 |

Data request: For KFMFDLFQQF (SCCA 10-19 peptide) [SCCA-derived peptide, position 10-19] , write its Fluorescence intesity.
Data returned: 11

###

system: peptide-specific IgG in sera of cancer patients and healthy donors; assay: Measurement of anti-peptide IgG in plasma by LUMINEX multiplexed flow cytometric assay; assay type: binding, human; conditions: serum of Uterine cervical Ca. patient #32, 1:100 dilution
The sequences listed here are annotated with their Fluorescence intesity.
Form field (numeric): enter value without unit.

The following sequences have reported results that may help.
| Monomer sequence | Value measured |
| --- | --- |
| RFKVEESYDL (SCCA 286-295 peptide) [SCCA-derived peptide, position 286-295] | 19 |
| QFQKLLTEF (SCCA 84-92 peptide) [SCCA-derived peptide, position 84-92] | 18 |
| EYLDAIKKF (SCCA 118-126 peptide) [SCCA-derived peptide, position 118-126] | 16 |
| EFHCNHPFL (SCCA 362-370 peptide) [SCCA-derived peptide, position 362-370] | 23 |
| LFGEKTYLFL (SCCA 107-116 peptide) [SCCA-derived peptide, position 107-116] | 19 |
| AYELKIANKL (SCCA 98-107 peptide) [SCCA-derived peptide, position 98-107] | 18 |

# context switch: different sequence, same Fluorescence intesity
Data request: # return recorded Fluorescence intesity for input KFMFDLFQQF (SCCA 10-19 peptide) [SCCA-derived peptide, position 10-19]
Data returned: 21

###

system: peptide-specific IgG in sera of cancer patients and healthy donors; assay: Measurement of anti-peptide IgG in plasma by LUMINEX multiplexed flow cytometric assay; format: binding, human; conditions: serum of Gastric Ca. patient #61, 1:100 dilution
Define the label as 1 when Fluorescence intesity is strictly less than 100 and as -1 in all remaining cases.

Example cases with answers are listed next.
| Monomer sequence | Tested system | Label value |
| --- | --- | --- |
| LFGEKTYLFL (SCCA 107-116 peptide) [SCCA-derived peptide, position 107-116] | peptide-specific IgG in sera of cancer patients and healthy donors | -1 |
| KFMFDLFQQF (SCCA 10-19 peptide) [SCCA-derived peptide, position 10-19] | peptide-specific IgG in sera of cancer patients and healthy donors | 1 |
| RFKVEESYDL (SCCA 286-295 peptide) [SCCA-derived peptide, position 286-295] | peptide-specific IgG in sera of cancer patients and healthy donors | -1 |

Data request: Decide: Fluorescence intesity of AYELKIANKL (SCCA 98-107 peptide) [SCCA-derived peptide, position 98-107] strictly below 100?
Data returned: 1

Data request: Given EYLDAIKKF (SCCA 118-126 peptide) [SCCA-derived peptide, position 118-126] , is recorded Fluorescence intesity strictly lower than 100?
Data returned: 1

Data request: Record EFHCNHPFL (SCCA 362-370 peptide) [SCCA-derived peptide, position 362-370] : is its Fluorescence intesity strictly below 100?
Data returned: 1

Origin of measurements: patent US8030443B2
